// values below are reported viability, T/C
System: 349418-098-R-PDC complex spheroid viability;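 also: spheroids exposed to compound for seven days before viability readout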
Assay info: Anticancer human tumor 349418-098-R-PDC patient-derived lung adenocarcinoma cell line growth inhibition [RAS]
Study conditions: second compound 0.1 µM; first compound 0.0316 µM; hits give low values

Worked set:
CCC(CC)c1cc(NC2CCC(N)C2)n2nccc2n1 (stereo not drawn) + C=CC(=O)N1CCN(c2nc(OCC3CCCN3C)nc3c(F)c(-c4nc(N)cc(C)c4C(F)(F)F)c(Cl)cc23)C(C)C1	73%
CC(Nc1ccc2c(c1)OCCn1cc(N3C(=O)OCC3C(F)F)nc1-2)C(N)=O (stereo not drawn) + C=CC(=O)N1CCN(c2nc(OCC3CCCN3C)nc3c(F)c(-c4nc(N)cc(C)c4C(F)(F)F)c(Cl)cc23)C(C)C1	46.2%

Task item: What viability, T/C value was documented for this compound, O=C(c1ccc(F)c(F)c1Nc1ccc(I)cc1F)N1CC(O)([C@@H]2CCCCN2)C1 + C#Cc1c(F)ccc2cc(O)cc(-c3ncc4c(N5CC6CCC(C5)N6)nc(OCC56CCCN5CC(F)C6)nc4c3F)c12 ?
Reply: 29.3%

From: PubChem BioAssay AID2060904
